System: E. coli MG1655
PROCEDURE DETAILS: High-throughput screening of FDA-approved drug library for antibiotic adjuvants (growth inhibition, OD600)
Format: cell-based, Escherichia coli
CONDITION INFO: library drug alone, LB medium, 96-well, 8 h static culture at 37°C, relative to PMBN (positive) and DMSO (negative) controls, %, table head prints no unit
Structures can show the parent of a compound that is named as a salt.
READOUT TYPE: Growth inhibition, Compound (%)
Numbers only here, please. The scale is %.

Could you tell me which Growth inhibition, Compound is on file for C/C(=C\C(=O)OCCCCCCCCC(=O)O)C[C@@H]1OC[C@H](C[C@@H]2O[C@H]2[C@@H](C)[C@H](C)O)[C@@H](O)[C@H]1O ?
83

Find the recorded Growth inhibition, Compound belonging to C[C@H]1COc2c(N3CCN(C)CC3)c(F)cc3c(=O)c(C(=O)O)cn1c23 [Levofloxacin] and report it.
102

Could you tell me which Growth inhibition, Compound is on file for Cn1nnc(-c2ccc(-c3ccc(N4C[C@H](CO)OC4=O)cc3F)cn2)n1 ?
61

Which Growth inhibition, Compound is reported for this molecule? NC[C@@H]1O[C@H](O[C@H]2[C@@H](O)[C@H](O[C@@H]3[C@@H](O)[C@H](N)C[C@H](N)[C@H]3O[C@H]3O[C@H](CO)[C@@H](O)[C@H](O)[C@H]3N)O[C@@H]2CO)[C@H](N)[C@@H](O)[C@@H]1O [Paromomycin Sulfate]
108

Data provenance: paper PMC11358092
